Measured MIC of individual entries
System: Klebsiella pneumoniae
experimental_protocol: Antimicrobial activity against Klebsiella pneumoniae ATCC 700603 assessed as reduction in microbial growth incubated for 18 hrs by Mueller-Hinton Broth based microdilution assay
Assay type: functional
Square brackets hold non-standard residues; d marks the D form. Peptide text beside a SMILES is read from it. NMeI = CC[C@H](C)[C@H](NC)C(=O)O; NMeL = CN[C@@H](CC(C)C)C(=O)O
outcome_measure: MIC

CC[C@H](C)[C@@H](C(=O)N[C@@H](CCCCN)C(=O)N[C@H](C(=O)N[C@@H](CC(C)C)C(=O)N[C@@H](CC(C)C)C(N)=O)[C@@H](C)O)N(C)C(=O)[C@H](CCCNC(=N)N)NC(=O)[C@H](CCCCN)NC(=O)[C@H](CC(C)C)N(C)C(=O)[C@H](CC(C)C)NC(=O)CN (H-GL[NMeL]KR[NMeI]KTLL-NH2)	> 128 µM
CC[C@H](C)[C@H](NC(=O)[C@H](CCCNC(=N)N)NC(=O)[C@H](CCCCN)NC(=O)[C@H](CC(C)C)N(C)C(=O)[C@H](CC(C)C)NC(=O)CN)C(=O)N[C@@H](CCCCN)C(=O)N[C@H](C(=O)N(C)[C@@H](CC(C)C)C(=O)N[C@@H](CC(C)C)C(N)=O)[C@@H](C)O (H-GL[NMeL]KRIKT[NMeL]L-NH2)	> 128 µM
